# System: MDA-MB-231 (ER−, PR−, Her2−) human breast cancer cells
# PROTOCOL NOTES: MTT cell viability assay, MDA-MB-231 cells
# Format: cell-based
# SETTINGS: Homo sapiens, MDA-MB-231, Table 5, 24 h, read-out: IC50 viability MDA-MB-231 (Breast)
METRIC NAME: pIC50
Give bare numbers, as −log10 of the molar value.

Some solved entries appear below for comparison.
# COMPOUND, TGT, RECORDED MEASUREMENT
measured = [
    ("C=C1C(=O)O[C@H]2CC3=C[C@@H](C/C(C)=C/[C@@H](OC(=O)/C=C/c4ccccc4)[C@H]12)OC3=O", "MDA-MB-231 (ER−, PR−, Her2−) human breast cancer cells", 5.40),
    ("C=C1C(=O)O[C@H]2CC3=C[C@@H](C/C(C)=C/[C@@H](OC(=O)Cc4cccc5ccccc45)[C@H]12)OC3=O", "MDA-MB-231 (ER−, PR−, Her2−) human breast cancer cells", 5.46),
    ("C=C1C(=O)OC2CC3=C[C@@H](C/C(C)=C/C(OC(=O)/C=C/c4cccc(OC)c4)[C@H]12)OC3=O (some centres unmarked)", "MDA-MB-231 (ER−, PR−, Her2−) human breast cancer cells", 5.72),
    ("C=C1C(=O)O[C@H]2CC3=C[C@@H](C/C(C)=C/[C@@H](OC(=O)c4ccc(OC)cc4)[C@H]12)OC3=O", "MDA-MB-231 (ER−, PR−, Her2−) human breast cancer cells", 5.41),
]

Please turn your attention to the following entry.
Could you share which pIC50 value was measured for C=C(C)C(=O)O[C@H]1CC2=C[C@@H](C/C(C)=C/[C@H]3OC(=O)C(=C)[C@H]13)OC2=O [DET, deoxyelephantopin, reference compound] ? 4.85

* * *

# System: MCF-7 (ER+, Her2−) human breast cancer cells
# PROTOCOL NOTES: MTT cell viability assay, MCF-7 cells
# Assay type: cell-based
# SETTINGS: MCF7, 24 h, read-out: IC50 on cell viability, MCF-7 (ER+, Her2−)
Hi there, I'd appreciate the recorded pIC50 for every entry that follows.
Numbers only, as −log10 of the molar value.

Some solved entries appear below for comparison.
# COMPOUND, pIC50
records = [
    ("C=C1C(=O)OC2CC3=C[C@@H](C/C(C)=C/C(OC(=O)C(CC)CCCC)[C@H]12)OC3=O (stereo partly drawn)", 5.35),
    ("C=C1C(=O)O[C@H]2CC3=C[C@@H](C/C(C)=C/[C@@H](OC(=O)Cc4cccc5ccccc45)[C@H]12)OC3=O", 5.49),
    ("C=C1C(=O)OC2CC3=C[C@@H](C/C(C)=C/C(OC(=O)c4cc5ccccc5s4)[C@H]12)OC3=O (stereo partly drawn)", 5.28),
]

Kindly give each listed record's pIC50.
1. C=C1C(=O)OC2CC3=C[C@@H](C/C(C)=C/C(OC(=O)c4cc5ccccc5o4)[C@H]12)OC3=O (stereo partly drawn)
2. C=C1C(=O)OC2CC3=C[C@@H](C/C(C)=C/C(OC(=O)/C=C/c4cccc(OC)c4)[C@H]12)OC3=O (stereo partly drawn)
3. C=C1C(=O)OC2CC3=C[C@@H](C/C(C)=C/C(OC(=O)c4cccs4)[C@H]12)OC3=O (stereo partly drawn)
4. C=C1C(=O)OC2CC3=C[C@@H](C/C(C)=C/C(OC(=O)/C=C/c4ccc(C)cc4)[C@H]12)OC3=O (stereo partly drawn)
5. C=C1C(=O)OC2CC3=C[C@@H](C/C(C)=C/C(OC(=O)c4ccc(Br)cc4)[C@H]12)OC3=O (stereo partly drawn)
6. C=C1C(=O)OC2CC3=C[C@@H](C/C(C)=C/C(OC(=O)CC(C)(CC)OC(C)=O)[C@H]12)OC3=O (stereo partly drawn)
7. C=C1C(=O)OC2CC3=C[C@@H](C/C(C)=C/C(OC(=O)C(CC)CC)[C@H]12)OC3=O (stereo partly drawn)
8. C=C1C(=O)OC2CC3=C[C@@H](C/C(C)=C/C(OC(=O)C4CC4)[C@H]12)OC3=O (stereo partly drawn)

5.21
5.68
5.43
5.43
5.21
5.38
5.41
5.15

Could you share which pIC50 value was measured for C=C1C(=O)OC2CC3=C[C@@H](C/C(C)=C/C(OC(=O)c4ccccc4)[C@H]12)OC3=O (stereo partly drawn) ? 5.23

* * *

# Test system: MeWo (No NRAS or BRAF mutation)
# PROTOCOL NOTES: MTT cell viability assay, MeWo melanoma
# Assay type: cell-based, human
# SETTINGS: Homo sapiens, MeWo, 24 h
Hi there, I'd appreciate the recorded pIC50 for every entry that follows.
Numbers only, as −log10 of the molar value.

Some solved entries appear below for comparison.
# COMPOUND, pIC50
data = [
    ("C=C1C(=O)OC2CC3=C[C@@H](C/C(C)=C/C(OC(=O)/C=C/c4ccc(Cl)cc4)[C@H]12)OC3=O (stereo partly shown)", 5.17),
    ("C=C1C(=O)OC2CC3=C[C@@H](C/C(C)=C/[C@@H](OC(=O)/C=C/c4ccc(OCC)cc4)[C@H]12)OC3=O (stereo partly shown)", 5.32),
    ("C=C1C(=O)O[C@H]2CC3=C[C@@H](C/C(C)=C/[C@@H](OC(=O)Cc4cccc5ccccc45)[C@H]12)OC3=O", 5.22),
    ("C=C1C(=O)OC2CC3=C[C@@H](C/C(C)=C/C(OC(=O)Cc4cccc5cc(OC)ccc45)[C@H]12)OC3=O (stereo partly shown)", 5.35),
    ("C=C1C(=O)OC2CC3=C[C@@H](C/C(C)=C/C(OC(=O)[C@H](C)c4ccc5cc(OC)ccc5c4)[C@H]12)OC3=O (stereo partly shown)", 5.10),
    ("C=C1C(=O)OC2CC3=C[C@@H](C/C(C)=C/C(OC(=O)c4cccs4)[C@H]12)OC3=O (stereo partly shown)", 5.04),
]

Please turn your attention to the following entry.
Could you share which pIC50 value was measured for C=C1C(=O)OC2CC3=C[C@@H](C/C(C)=C/C(OC(=O)/C=C/c4cccc(OCC)c4)[C@H]12)OC3=O (stereo partly shown) ? 5.03

* * *

# System: M10 normal mammary epithelial cells
# PROTOCOL NOTES: MTT cell viability assay, M10 normal cells
# Format: cell-based, human
# SETTINGS: Homo sapiens, Epithelial cell, 24 h
METRIC NAME: IC50

Some solved entries appear below for comparison.
# MOLECULE, RECORDED MEASUREMENT
measured = [
    ("C=C1C(=O)OC2CC3=C[C@@H](C/C(C)=C/C(OC(=O)c4cc5ccccc5o4)[C@H]12)OC3=O (stereo partly drawn) [DETD-40]", "> 7.5 µM"),
    ("C=C1C(=O)OC2CC3=C[C@@H](C/C(C)=C/C(OC(=O)/C=C/c4ccco4)[C@H]12)OC3=O (stereo partly drawn) [DETD-29]", "> 7.5 µM"),
    ("C=C1C(=O)OC2CC3=C[C@@H](C/C(C)=C/C(OC(=O)/C=C/c4ccc(C)cc4)[C@H]12)OC3=O (stereo partly drawn) [DETD-27]", "> 7.5 µM"),
    ("C=C1C(=O)OC2CC3=C[C@@H](C/C(C)=C/C(OC(=O)C(C)CCC)[C@H]12)OC3=O (stereo partly drawn) [DETD-20]", "> 7.5 µM"),
]

Kindly give each listed record's IC50.
1. C=C1C(=O)OC2CC3=C[C@@H](C/C(C)=C/C(OC(=O)/C=C/c4ccc(OC)c(OC)c4)[C@H]12)OC3=O (stereo partly drawn) [DETD-49]
2. C=C1C(=O)OC2CC3=C[C@@H](C/C(C)=C/[C@@H](OC(=O)[C@@H](OC)c4ccc5ccccc5c4)[C@H]12)OC3=O (stereo partly drawn) [DETD-56]

1: > 7.5 µM; 2: > 7.5 µM

* * *

Hi there, I'd appreciate the recorded pIC50 for every entry that follows.
# System: LPS-induced nitric oxide (NO) production in RAW 264.7 cells
# PROTOCOL NOTES: Nitric oxide production in LPS-stimulated macrophages (Griess)
# Format: cell-based, mouse
# SETTINGS: Mus musculus; LPS-stimulated RAW264.7, nitrite 24 h after LPS
Give bare numbers, as −log10 of the molar value.

Some solved entries appear below for comparison.
# COMPOUND, TGT, pIC50
records = [
    ("C=C1C(=O)OC2CC3=C[C@@H](C/C(C)=C/C(OC(=O)c4cccs4)[C@H]12)OC3=O (stereo partly shown) [DETD-30]", "LPS-induced nitric oxide (NO) production in RAW 264.7 cells", 5.80),
    ("C=C1C(=O)OC2CC3=C[C@@H](C/C(C)=C/C(OC(C)=O)[C@H]12)OC3=O (stereo partly shown) [DETD-17]", "LPS-induced nitric oxide (NO) production in RAW 264.7 cells", 5.70),
    ("C=C1C(=O)OC2CC3=C[C@@H](C/C(C)=C/C(OC(=O)c4cc5ccccc5o4)[C@H]12)OC3=O (stereo partly shown) [DETD-40]", "LPS-induced nitric oxide (NO) production in RAW 264.7 cells", 5.35),
]

Please turn your attention to the following entry.
Could you share which pIC50 value was measured for C=C1C(=O)OC2CC3=C[C@@H](C/C(C)=C/C(OC(=O)CC(O)(C(C)C)C(C)C)[C@H]12)OC3=O (stereo partly shown) [DETD-23] ? 5.42
